Test system: Platelet-derived growth factor receptor alpha (Homo sapiens), P16234 [D842V]
Sequence (P16234 whole entry D842V): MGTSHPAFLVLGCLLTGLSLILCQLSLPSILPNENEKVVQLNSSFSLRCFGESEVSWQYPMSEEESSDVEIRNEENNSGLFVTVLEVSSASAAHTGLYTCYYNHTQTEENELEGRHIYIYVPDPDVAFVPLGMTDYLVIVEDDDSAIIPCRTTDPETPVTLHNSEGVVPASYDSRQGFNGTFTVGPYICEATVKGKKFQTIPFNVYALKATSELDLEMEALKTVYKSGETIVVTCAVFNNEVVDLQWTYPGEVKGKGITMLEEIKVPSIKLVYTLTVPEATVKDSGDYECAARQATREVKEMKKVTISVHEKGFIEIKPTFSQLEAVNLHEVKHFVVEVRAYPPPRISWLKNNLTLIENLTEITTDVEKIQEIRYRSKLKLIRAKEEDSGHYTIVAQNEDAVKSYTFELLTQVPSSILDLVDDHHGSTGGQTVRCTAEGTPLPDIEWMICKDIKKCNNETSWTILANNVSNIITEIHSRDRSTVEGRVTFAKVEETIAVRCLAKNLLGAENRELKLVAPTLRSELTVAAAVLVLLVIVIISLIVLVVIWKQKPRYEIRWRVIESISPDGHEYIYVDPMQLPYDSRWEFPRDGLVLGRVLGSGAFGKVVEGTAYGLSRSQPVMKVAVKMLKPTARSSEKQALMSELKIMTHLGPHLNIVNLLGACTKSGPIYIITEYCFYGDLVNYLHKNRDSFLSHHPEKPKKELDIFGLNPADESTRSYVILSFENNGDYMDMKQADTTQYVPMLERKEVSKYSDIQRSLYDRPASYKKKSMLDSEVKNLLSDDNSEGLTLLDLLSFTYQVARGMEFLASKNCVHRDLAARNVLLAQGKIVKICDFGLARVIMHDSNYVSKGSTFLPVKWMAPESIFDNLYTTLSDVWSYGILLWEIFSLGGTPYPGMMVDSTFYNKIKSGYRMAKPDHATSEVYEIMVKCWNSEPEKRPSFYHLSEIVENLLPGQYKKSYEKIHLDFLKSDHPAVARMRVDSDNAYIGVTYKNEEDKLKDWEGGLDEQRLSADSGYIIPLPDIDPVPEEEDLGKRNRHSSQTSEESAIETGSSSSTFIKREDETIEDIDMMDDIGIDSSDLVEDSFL
Details: at 0.1 µM
outcome.measure: inhibition (%)

>>> assay_value("COc1cccc(-n2ncc3c(N/N=C/c4ccc(S(C)(=O)=O)cc4)ncnc32)c1")
51.8
>>> assay_value("CCn1c(-c2nonc2N)nc2c(C#CC(C)(C)O)nc(OCCNC)cc21")
5.07
>>> assay_value("Cc1ccc(O)cc1Nc1ccnc2ccc(S(C)(=O)=O)cc12")
88.8
>>> assay_value("COc1cc(/C=N/Nc2ncnc3c2cnn3C(C)C)ccc1O")
13.3
>>> assay_value("Cc1nc(-c2ccccc2)n2nc(NCCCN3CCOCC3)ncc12")
0.64
>>> assay_value("N#Cc1cccc(Nc2nccc(-c3cnn4ncccc34)n2)c1")
10.5

* * *

Molecular target: MAP kinase-activated protein kinase 3 (Homo sapiens)
Settings: at 0.1 µM
Description: GSK_PKIS: MAPKAPK3 mean inhibition at 0.1 uM [Nanosyn]
outcome.measure: inhibition (%)

>>> assay_value("Cc1cc(O)cc(C)c1/C=C/c1cncc(C(=O)N(C)C)c1")
0.87
>>> assay_value("Nc1ccc(C#Cc2cncnc2Nc2ccc(OCc3cccc(F)c3)c(Cl)c2)cc1")
4.18
>>> assay_value("Nc1nccc(C#Cc2cncnc2Nc2ccc(OCc3cccc(F)c3)c(Cl)c2)n1")
2.38
>>> assay_value("Cc1cc(-c2ccccn2)cc(C)c1/C=C/c1cncc(-c2nn[nH]n2)c1")
4.19
>>> assay_value("CCn1c(-c2nonc2N)nc2ccc(F)cc21")
4.6
>>> assay_value("c1ccc(Cc2nc3ccc(Nc4ncnc5ccccc45)cc3[nH]2)cc1")
3.82
>>> assay_value("CC(C)c1ccc2c(c1)NC(=O)/C2=N/Nc1ccc(S(N)(=O)=O)cc1")
-0.68
>>> assay_value("NC(=O)c1sc(-n2cnc3ccccc32)cc1OCc1ccccc1Br")
8.98
>>> assay_value("Cc1ccc2c(c1)/C(=N/Nc1ccc(S(N)(=O)=O)cc1)C(=O)N2")
2.9
>>> assay_value("NS(=O)(=O)c1ccc(NC=C2C(=O)Nc3ccc4ncsc4c32)cc1")
5.09
>>> assay_value("N#Cc1cccc(Nc2nccc(-c3cnn4ncccc34)n2)c1")
2.17
>>> assay_value("CCS(=O)(=O)c1ccc(OC)c(Nc2ncc(-c3cccc(OC)c3)o2)c1")
1.43
>>> assay_value("Cc1ccc2c(-c3ccnc(Nc4ccc5c(c4)OCCO5)n3)c(-c3ccc(C(F)(F)F)cc3)nn2n1")
2.89
>>> assay_value("COc1cc2ncnc(Nc3ccc(C)c(O)c3)c2cc1OC")
5.93
>>> assay_value("O=C1Nc2ccc(-c3cccnc3)cc2C1=Cc1cc(Br)c(O)c(Br)c1")
2.4

* * *

Biological target: Protein-tyrosine kinase 2-beta (Homo sapiens);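 further: values are the mean percent inhibition of PYK2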
Settings: at 1 µM
Threshold check on inhibition: at or above 9% gives Satisfied, strictly below gives Not satisfied.

>>> assigned_class("Cc1ccc2c(c1)/C(=N/Nc1ccc(S(N)(=O)=O)cc1)C(=O)N2")
"Not satisfied"
>>> assigned_class("NS(=O)(=O)c1ccc(Nc2cc(-c3cccc(O)c3)n[nH]2)cc1")
"Satisfied"
>>> assigned_class("CCOc1nccc2c1nc(-c1nonc1N)n2CC")
"Not satisfied"
>>> assigned_class("N#Cc1cccc(Nc2nccc(-c3cnn4ncccc34)n2)c1")
"Satisfied"
>>> assigned_class("COc1cccc(-n2nc(C)c3c(N/N=C(\\C)c4ccncc4)ncnc32)c1")
"Not satisfied"
>>> assigned_class("COc1cc2ncnc(Nc3ccc(C)c(O)c3)c2cc1OC")
"Satisfied"
>>> assigned_class("COc1cccc(-n2ncc3c(N/N=C/c4ccc(S(C)(=O)=O)cc4)ncnc32)c1")
"Not satisfied"
>>> assigned_class("O=S(=O)(CCOCc1ccc(-c2ccc3ncnc(Nc4ccc(OCc5cccc(F)c5)c(Cl)c4)c3c2)o1)c1ccccc1")
"Not satisfied"
>>> assigned_class("COc1cc2ncn(-c3cc(OCc4ccccc4S(C)(=O)=O)c(C#N)s3)c2cc1OC")
"Satisfied"
>>> assigned_class("CS(=O)(=O)CCNCc1nc(-c2ccc3ncnc(Nc4ccc(OCc5cccc(C(F)(F)F)c5)cc4)c3c2)cs1")
"Not satisfied"
>>> assigned_class("COC(=O)Nc1nc2cc(Oc3ccc(NC(=O)Nc4cccc(Br)c4)cc3)ccc2[nH]1")
"Satisfied"
>>> assigned_class("c1ccc(Nc2ncc(-c3ccccc3)o2)cc1")
"Satisfied"
>>> assigned_class("ON=C1CCc2cc(-c3nc(C4CCNCC4)[nH]c3-c3ccncc3)ccc21")
"Not satisfied"
>>> assigned_class("NS(=O)(=O)c1ccc(-c2cc3ccncc3cc2OCc2ccccc2)cc1")
"Satisfied"
>>> assigned_class("CC(C)c1ccc(Nc2nccc(-c3cnn4ncccc34)n2)cc1")
"Satisfied"

* * *

Biological target: Tyrosine-protein kinase Lyn (Homo sapiens) (UniProt P07948);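 further: mean inhibition of the LYN B splice variant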
Sequence (P07948 2-512 limits assumed): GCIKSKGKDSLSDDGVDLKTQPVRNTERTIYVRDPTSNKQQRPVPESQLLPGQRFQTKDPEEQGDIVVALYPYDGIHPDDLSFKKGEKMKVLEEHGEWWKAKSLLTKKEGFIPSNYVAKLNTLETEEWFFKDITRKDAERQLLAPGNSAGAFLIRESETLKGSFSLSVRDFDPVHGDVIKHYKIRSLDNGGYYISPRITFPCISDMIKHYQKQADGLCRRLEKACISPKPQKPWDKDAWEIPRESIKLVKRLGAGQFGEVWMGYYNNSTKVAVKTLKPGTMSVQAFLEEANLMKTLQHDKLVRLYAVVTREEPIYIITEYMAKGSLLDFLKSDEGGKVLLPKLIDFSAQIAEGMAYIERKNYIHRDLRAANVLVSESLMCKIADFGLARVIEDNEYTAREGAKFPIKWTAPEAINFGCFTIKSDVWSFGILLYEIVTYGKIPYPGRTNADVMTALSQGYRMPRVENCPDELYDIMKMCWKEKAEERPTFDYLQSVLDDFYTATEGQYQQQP
Conditions: at 0.1 µM
Description: GSK_PKIS: LYN B (splice variant) mean inhibition at 0.1 uM [Nanosyn]
Parameter: inhibition. Scope: all listed entries.
outcome.measure: inhibition

>>> assay_value("CCOc1nccc2c1nc(-c1nonc1N)n2CC")
"2.33%"
>>> assay_value("NC(=O)c1sc(-n2cnc3ccccc32)cc1OCc1ccccc1Br")
"1.96%"
>>> assay_value("c1ccc(Nc2ncc(-c3ccccc3)o2)cc1")
"4.91%"
>>> assay_value("CN(C)CCCn1c(-c2nonc2N)nc2cnccc21")
"3.03%"
>>> assay_value("CN(C)C(=O)O[C@H]1CN[C@H](C#Cc2cc3ncnc(Nc4ccc(OCc5cccc(F)c5)c(Cl)c4)c3s2)C1")
"1.48%"
>>> assay_value("COc1cccc(-n2ncc3c(N/N=C/c4ccc(S(C)(=O)=O)cc4)ncnc32)c1")
"48.1%"
>>> assay_value("CN(C)C(=O)O[C@@H]1CN[C@@H](C#Cc2cc3ncnc(Nc4ccc(OCc5cccc(F)c5)c(Cl)c4)c3s2)C1")
"0.28%"
>>> assay_value("Nc1nccc(C#Cc2cncnc2Nc2ccc(OCc3cccc(F)c3)c(Cl)c2)n1")
"3.64%"
>>> assay_value("O=C1Nc2ccccc2/C1=C/Nc1ccc2[nH]c(=O)[nH]c2c1")
"7.45%"
>>> assay_value("CCCN1CCCC(c2ccc(Nc3nc(Nc4cc(F)ccc4C(N)=O)c4cc[nH]c4n3)c(OC)c2)C1 (stereo not given)")
"3.89%"

* * *

Parameter: inhibition. Scope: all listed entries.
Target: Tyrosine-protein kinase JAK2 (Homo sapiens);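 further: mean JAK2 inhibition from the GSK PKIS screen, compounds tested at 1 µM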
Settings: at 1 µM
outcome.measure: inhibition (%)

>>> assay_value("NS(=O)(=O)c1ccc(Nc2cc(-c3cccc(O)c3)n[nH]2)cc1")
1.95
>>> assay_value("CN(C)C(=O)O[C@@H]1CN[C@@H](C#Cc2cc3ncnc(Nc4ccc(OCc5cccc(F)c5)c(Cl)c4)c3s2)C1")
-0.45
>>> assay_value("CN(C)CCCn1c(-c2nonc2N)nc2cnccc21")
0.79
>>> assay_value("Cc1cc(Cl)cc2c1NC(=O)C2=NNc1ccc(S(N)(=O)=O)cc1")
0.42
>>> assay_value("CCn1c(-c2nonc2N)nc2ccc(F)cc21")
1.29
>>> assay_value("CCS(=O)(=O)c1ccc(OC)c(Nc2nccc(N(C)c3ccc4c(C)n[nH]c4c3)n2)c1")
-0.31
>>> assay_value("Cc1ccc(O)cc1Nc1ccnc2ccc(S(C)(=O)=O)cc12")
2.12
>>> assay_value("Nc1ccc(C#Cc2cncnc2Nc2ccc(OCc3cccc(F)c3)c(Cl)c2)cc1")
0.43
>>> assay_value("Cc1ccc(Nc2ccnc(Nc3cccc(C(N)=O)c3)n2)cc1O")
45.8
>>> assay_value("COc1ccc2ncnc(Nc3ccc(OCc4ccccc4)cc3)c2c1")
0.06

* * *

Parameter: inhibition. Scope: all listed entries.
Target: Ribosomal protein S6 kinase alpha-3 (Homo sapiens);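 further: reported value is a mean inhibition figure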
Conditions: at 0.1 µM
outcome.measure: inhibition (%)

>>> assay_value("O=C1Nc2ccccc2/C1=C/Nc1ccc2[nH]c(=O)[nH]c2c1")
2.19
>>> assay_value("NS(=O)(=O)c1ccc(Nc2cc(-c3cccc(O)c3)n[nH]2)cc1")
2.14
>>> assay_value("COc1cccc(-n2nc(C)c3c(N/N=C(\\C)c4ccncc4)ncnc32)c1")
0.34
>>> assay_value("COC(=O)c1cncc(/C=C/c2c(C)cc(O)cc2C)c1")
1.3
>>> assay_value("CN(c1ccc(NC(=O)Nc2ccc(OC(F)(F)F)cc2)cc1)c1ccnc(Nc2cccc(S(N)(=O)=O)c2)n1")
-0.29
>>> assay_value("Nc1nccc(-c2c(-c3ccc(F)cc3)ncn2CCCN2CCOCC2)n1")
1.92
>>> assay_value("CN(C)CCCn1c(-c2nonc2N)nc2cnccc21")
1.45
>>> assay_value("CN(C)C(=O)O[C@H]1CN[C@H](C#Cc2cc3ncnc(Nc4ccc(OCc5cccc(F)c5)c(Cl)c4)c3s2)C1")
0.75
>>> assay_value("CCS(=O)(=O)c1ccc(OC)c(Nc2nccc(N(C)c3ccc4c(C)n[nH]c4c3)n2)c1")
-0.28
>>> assay_value("CCCN1CCCC(c2ccc(Nc3nc(Nc4cc(F)ccc4C(N)=O)c4cc[nH]c4n3)c(OC)c2)C1 (stereo not given)")
22.6

* * *

Parameter: inhibition. Scope: all listed entries.
Biological target: Mitogen-activated protein kinase 11 (Homo sapiens);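 further: reported values are averaged (mean) percent inhibition of p38beta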
Details: at 0.1 µM
outcome.measure: inhibition (%)

>>> assay_value("NS(=O)(=O)c1ccc(Nc2cc(-c3cccc(O)c3)n[nH]2)cc1")
7.39
>>> assay_value("O=C1Nc2ccccc2/C1=C/Nc1ccc2[nH]c(=O)[nH]c2c1")
5.12
>>> assay_value("Cc1ccc2c(-c3ccnc(Nc4ccc5c(c4)OCCO5)n3)c(-c3ccc(C(F)(F)F)cc3)nn2n1")
1.91
>>> assay_value("COC(=O)c1ccc2c(c1)C(=Cc1cc(Br)c(O)c(Br)c1)C(=O)N2")
2.64
>>> assay_value("Nc1nccc(-c2c(-c3ccc(F)cc3)ncn2CCCN2CCOCC2)n1")
6.8
>>> assay_value("O=S(=O)(CCOCc1ccc(-c2ccc3ncnc(Nc4ccc(OCc5cccc(F)c5)c(Cl)c4)c3c2)o1)c1ccccc1")
-0.78
>>> assay_value("COc1cc2ncnc(Nc3ccc4c(cnn4Cc4ccccc4)c3)c2cc1OC")
1.39
>>> assay_value("COC(=O)c1cncc(/C=C/c2c(C)cc(O)cc2C)c1")
0.99
>>> assay_value("CN(C)c1cc2c(Nc3ccc4c(cnn4Cc4ccccc4)c3)ncnc2cn1")
2.35
>>> assay_value("COc1cccc(-n2nc(C)c3c(N/N=C(\\C)c4ccncc4)ncnc32)c1")
1.51
>>> assay_value("Cc1ccc(O)cc1Nc1ccnc2ccc(S(C)(=O)=O)cc12")
9
>>> assay_value("Cc1ccc2c(-c3ccnc(Nc4cccc(C(F)(F)F)c4)n3)c(-c3ccccc3)nn2n1")
6.89
>>> assay_value("Cc1ccc(C(=O)NC2CC2)cc1-c1ccc2[nH]ncc2c1")
4.23
